Origin of the recorded values: patent US20250206841A1

- target of assay: T1, human Trop-2-His protein (human, UniProt P09758 27-274)
- T1 construct: extracellular domain; Assay paragraphs say only 'Trop-2-His'; also called hTrop-2; Kactus Cat #TRP-HM121; not shown: His tag
- T1 sequence (looked up): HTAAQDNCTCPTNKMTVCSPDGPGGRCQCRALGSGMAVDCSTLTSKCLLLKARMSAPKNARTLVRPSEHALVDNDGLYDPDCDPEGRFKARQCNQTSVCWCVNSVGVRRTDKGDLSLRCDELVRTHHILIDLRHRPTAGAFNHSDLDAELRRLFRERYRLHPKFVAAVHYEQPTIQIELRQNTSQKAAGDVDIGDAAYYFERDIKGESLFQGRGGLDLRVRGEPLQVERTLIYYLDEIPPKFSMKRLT
- protocol description: BLI (Gator Plus), purified Ab on HFC probe
Mark Y for reported kon of 600000 M⁻¹ s⁻¹ or greater; mark N for anything smaller.

{"columns": ["binder", "qualitative label"],
 "data": [
  ["9D7-2 (antibody, V domains shown) VH: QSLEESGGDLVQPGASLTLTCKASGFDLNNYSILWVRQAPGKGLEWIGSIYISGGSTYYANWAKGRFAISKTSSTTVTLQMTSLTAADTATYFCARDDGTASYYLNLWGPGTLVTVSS VL: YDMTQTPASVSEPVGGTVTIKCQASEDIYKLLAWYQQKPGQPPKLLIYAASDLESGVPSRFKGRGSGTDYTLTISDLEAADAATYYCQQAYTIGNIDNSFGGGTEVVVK", "N"],
  ["10A9 (antibody, V domains shown, Rabbit-derived clone; LEM construct: VH + rabbit IgG CH1 + human IgG1 CH2-CH3) VH: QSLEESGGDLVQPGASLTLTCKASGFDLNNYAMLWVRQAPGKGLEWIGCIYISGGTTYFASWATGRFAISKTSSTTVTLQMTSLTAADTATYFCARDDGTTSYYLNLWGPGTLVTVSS VL: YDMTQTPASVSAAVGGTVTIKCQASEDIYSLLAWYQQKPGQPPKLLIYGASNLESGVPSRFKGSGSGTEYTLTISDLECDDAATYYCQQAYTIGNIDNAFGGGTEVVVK", "N"],
  ["66A1 (antibody, V domains shown, Rabbit-derived clone; LEM construct: VH + rabbit IgG CH1 + human IgG1 CH2-CH3) VH: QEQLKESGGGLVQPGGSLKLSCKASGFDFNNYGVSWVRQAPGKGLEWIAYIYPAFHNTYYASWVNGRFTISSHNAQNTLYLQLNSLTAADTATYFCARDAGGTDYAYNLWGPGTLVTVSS VL: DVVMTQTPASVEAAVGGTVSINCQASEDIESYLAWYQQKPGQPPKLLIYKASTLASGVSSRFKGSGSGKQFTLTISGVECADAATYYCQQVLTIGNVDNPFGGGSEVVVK", "Y"],
  ["9F7 (antibody, V domains shown, Rabbit-derived clone; LEM construct: VH + rabbit IgG CH1 + human IgG1 CH2-CH3) VH: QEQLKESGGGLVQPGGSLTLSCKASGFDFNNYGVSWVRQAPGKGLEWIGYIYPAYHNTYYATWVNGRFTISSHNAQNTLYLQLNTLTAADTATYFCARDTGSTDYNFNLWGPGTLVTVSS VL: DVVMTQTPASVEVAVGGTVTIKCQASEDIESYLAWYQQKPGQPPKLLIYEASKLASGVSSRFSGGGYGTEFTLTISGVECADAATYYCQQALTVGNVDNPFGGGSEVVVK", "Y"],
  ["5D4-2 (antibody, V domains shown) VH: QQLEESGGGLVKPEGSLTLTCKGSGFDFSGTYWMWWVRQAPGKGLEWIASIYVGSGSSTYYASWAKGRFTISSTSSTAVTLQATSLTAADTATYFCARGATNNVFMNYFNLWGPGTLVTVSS VL: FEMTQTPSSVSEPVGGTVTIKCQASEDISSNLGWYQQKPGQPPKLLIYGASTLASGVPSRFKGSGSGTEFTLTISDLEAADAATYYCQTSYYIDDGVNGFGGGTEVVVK", "N"],
  ["5D4-1 (antibody, V domains shown) VH: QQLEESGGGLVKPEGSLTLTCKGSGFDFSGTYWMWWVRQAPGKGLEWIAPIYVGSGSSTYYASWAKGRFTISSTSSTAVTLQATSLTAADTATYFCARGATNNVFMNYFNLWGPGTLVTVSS VL: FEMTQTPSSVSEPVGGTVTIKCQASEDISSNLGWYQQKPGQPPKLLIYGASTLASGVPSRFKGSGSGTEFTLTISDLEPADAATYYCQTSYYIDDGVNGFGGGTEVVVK", "N"]
]}
